target: Calmodulin-1 (Homo sapiens); assay: calcium-bound CALM1 binders on microarrays, profiling panel, artefact control for SMM control-protein annotation, biochemical, small-molecule microarray, Cy5-labelled CALM1, plus calcium (AID 1112); details: Cy5-CALM1 binding fluorescence, higher = more signal;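 further: score merges spot fluorescence with signal to noise from triplicate slides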
observable: composite z-score
One number for each entry.

O=C1C2C=CC(C(O)c3cccc4ccccc34)N(Nc3ccccc3F)C2C(=O)N1c1ccccc1 (stereo not drawn); 0.895
C[C@H]1C2[C@H](Cc3ccccc3)NC(=O)[C@]23C(=O)N[C@H](Cc2ccccc2)C(=O)N2CCC[C@H]2C(=O)NC/C=C\C/C=C/C3[C@@H]2O[C@]12C (stereo partly drawn); -0.863

Please go through the list and note composite z-score for each molecule.
1. O=C1C[C@@](C(=O)NCCN2CCOCC2)(c2ccc([N+](=O)[O-])cc2)[C@@H](c2ccc(CO)cc2I)N1CC12CC3CC(CC(C3)C1)C2
2. O=C(OCc1ccccc1)C1=CCC2c3[nH]c4ccccc4c3C(=O)C1N2S(=O)(=O)c1ccccc1[N+](=O)[O-] (stereo not drawn)
3. CC(C)NC(=O)[C@@]1(c2ccc([N+](=O)[O-])cc2)CC(=O)N(C2CCCCC2)[C@@H]1c1ccc(CO)cc1I

Result:
-0.581
-0.369
0.272

Please go through the list and note composite z-score for each molecule.
1. C=CCNC(=O)[C@@H]1[C@H]2C(=O)O[C@H](c3ccccc3)[C@H](c3ccccc3)N2[C@H](c2ccc(O)cc2)[C@@]12C(=O)Nc1ccc(C#CCNC(N)=O)cc12
2. COc1cc(Br)cc(C(O)C2C=CC3C(=O)N(C)C(=O)C3N2N2CCCCC2)c1OC (stereo not drawn)
3. Oc1ccc2cc[n+](Cc3sc4ccccc4c3Cl)cc2c1

Result:
1. -0.28
2. 0.315
3. -0.683

###

tested on: XIP peptide (Xip251-270) binding; experiment: small-molecule binders of XIP peptide, primary screen, biochemical, small-molecule microarray, fluorescence 635/667 nm, 0.1 µg/mL protein (AID 1182); settings: fluorescent protein binding, 635 nm, higher = more signal, called active from +8 up or from −8 down
Would you mind classing the entries by composite z-score? Ranges: zone 1 = under 0.3, zone 2 = from 0.3 up to 0.6, zone 3 = 0.6 and over

Completed entries (count: 10):
C=CCN1C(=O)[C@@]2(CC=C)N=C(c3ccc(OCCCO)cc3)O[C@H]2c2ccccc21; zone 3
CC1CC/C=C\[C@H]2OC34C=CCN(C(C)(C)C)C(=O)[C@H]3N(CCO)C(=O)[C@@H]4C2C(=O)O1 (some centres undefined); zone 1
COc1cccc(-c2cccc(=O)o2)c1; zone 1
COC(=O)C(CC#Cc1ccc2c(c1)[C@]1(C(=O)N2)[C@H](c2ccc(OCCO)cc2)N2[C@H](c3ccccc3)[C@H](c3ccccc3)OC(=O)[C@H]2[C@@H]1C(=O)Nc1nc2ccccc2s1)C(=O)OC; zone 1
C=CCNC(=O)[C@H]1[C@@H]2C(=O)O[C@@H](c3ccccc3)[C@@H](c3ccccc3)N2[C@@H](c2ccccc2OCCO)[C@]12C(=O)Nc1ccc(C#CCCO)cc12; zone 3
C=CCN1C(=O)[C@@]2(Cc3ccccc31)N=C(c1ccc(OCCCO)cc1)O[C@H]2c1ccccc1; zone 3
CCCCCN1CC=CC23O[C@@H]4C=CCCOC(=O)C4[C@H]2C(=O)N(CCCCCO)[C@@H]3C1=O (some centres undefined); zone 2
CO[C@H]1O[C@H](CO)[C@@H](OC(=O)Nc2cccc(F)c2)[C@H](OC(=O)Nc2ccccc2)[C@@H]1OC(=O)Nc1ccccc1; zone 3
CC(C)C(=C=CC[C@@H](O)c1ccc(OCCO)cc1)C[C@@H](O)COCc1ccccc1; zone 2
CO[C@H]1O[C@H](CO)[C@@H](OC(=O)Nc2ccc(C(F)(F)F)cc2)[C@H](OC(=O)Nc2ccc3c(c2)OCO3)[C@@H]1OC(=O)Nc1ccc2c(c1)OCO2; zone 3

Task: Where would C=CC(=C)[C@H]1Oc2ccccc2S(=O)(=O)N2CCC[C@@H]12 land among the classes by reported composite z-score?
Result: zone 2

Task: Where would O=C1C2C=CC(C(O)c3cc(C(F)(F)F)cc(C(F)(F)F)c3)N(n3cnnc3)C2C(=O)N1Cc1ccccc1 (centres undefined) land among the classes by reported composite z-score?
Result: zone 1

Data provenance: PubChem BioAssay
